Below, each entry is listed alongside its reported IC50.
# Test system: MCF7
# assay-details: Antiproliferative activity against human MCF7 cells after 72 hrs by MTS assay
# Type: functional, cell-based
# condition-description: MCF7, 72 h

structure-smiles-string	unit-abbrev	IC50
CN1CCC(Oc2ccc(-c3cccc(NC(=O)c4ccc(Cl)c(Cl)c4)c3)cc2)CC1	µM	2.17
CC(=O)Oc1ccc(C(=O)Nc2cccc(-c3ccc(OC4CCN(C)CC4)cc3)c2)cc1CC=C(C)C	µM	1.45
COc1cccc(C(=O)Nc2cccc(-c3ccc(OC4CCN(C)CC4)cc3)c2)c1	µM	4.5
CN1CCC(Oc2ccc(-c3cccc(NC(=O)c4ccccc4Cl)c3)cc2)CC1	µM	5.17
Cc1ccc(C(=O)Nc2cccc(-c3ccc(OC4CCN(C)CC4)cc3)c2)cc1	µM	3.92
